# study_system: 5-hydroxytryptamine receptor 6 (Homo sapiens, UniProt P50406)
# Sequence (P50406 whole entry): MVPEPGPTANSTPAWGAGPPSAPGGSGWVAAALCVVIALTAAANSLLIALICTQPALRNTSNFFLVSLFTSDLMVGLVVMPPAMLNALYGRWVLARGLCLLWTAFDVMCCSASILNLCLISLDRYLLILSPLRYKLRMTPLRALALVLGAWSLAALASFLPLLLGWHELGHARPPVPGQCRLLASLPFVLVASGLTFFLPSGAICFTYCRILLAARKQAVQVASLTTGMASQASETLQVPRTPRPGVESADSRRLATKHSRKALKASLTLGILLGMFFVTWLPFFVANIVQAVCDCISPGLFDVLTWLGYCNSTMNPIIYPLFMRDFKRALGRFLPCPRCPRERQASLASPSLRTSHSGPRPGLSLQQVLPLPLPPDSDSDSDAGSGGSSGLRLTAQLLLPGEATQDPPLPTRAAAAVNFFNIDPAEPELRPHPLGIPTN
pKi: −log10 of the molar value.
Where pKi equals or exceeds 8, the correct label is Yes; where it does not, the label is No.

given_smiles=CN1CCC[C@@H]1Cc1c[nH]c2ccc(NS(=O)(=O)c3ccc(C(F)(F)F)cc3)cc12 answer_label=Yes
given_smiles=CC(C)c1ccc(S(=O)(=O)Nc2ccc3[nH]cc(C[C@H]4CCCN4)c3c2)cc1 answer_label=Yes
given_smiles=O=S(=O)(Nc1ccc2[nH]cc(C[C@@H]3CCCN3)c2c1)c1ccc(F)cc1F answer_label=No
given_smiles=CC(C)c1ccc(S(=O)(=O)Nc2ccc3[nH]cc(C[C@H]4CCCN4C)c3c2)cc1 answer_label=Yes
given_smiles=O=S(=O)(Nc1ccc2[nH]cc(C[C@H]3CCCN3)c2c1)c1ccccc1 answer_label=Yes
given_smiles=COc1ccc(S(=O)(=O)Nc2ccc3[nH]cc(C[C@H]4CCCN4C)c3c2)cc1 answer_label=Yes
given_smiles=O=S(=O)(Nc1ccc2[nH]cc(C[C@H]3CCCN3)c2c1)c1cccc(Cl)c1 answer_label=Yes
given_smiles=CN1CCC[C@@H]1Cc1c[nH]c2ccc(NS(=O)(=O)c3ccccc3)cc12 answer_label=Yes
given_smiles=CN1CCC[C@H]1Cc1c[nH]c2ccc(NS(=O)(=O)c3ccc4ccccc4c3)cc12 answer_label=Yes
given_smiles=O=S(=O)(Nc1ccc2[nH]cc(C[C@H]3CCCN3)c2c1)c1cccc(C(F)(F)F)c1 answer_label=Yes
given_smiles=Cc1c(S(=O)(=O)Nc2ccc3[nH]cc(C[C@@H]4CCCN4C)c3c2)sc2ccc(Cl)cc12 answer_label=Yes
given_smiles=O=S(=O)(Nc1ccc2[nH]cc(C[C@@H]3CCCN3)c2c1)c1cccc(Cl)c1 answer_label=No
given_smiles=O=S(=O)(Nc1ccc2[nH]cc(C[C@@H]3CCCN3)c2c1)c1ccc(Br)cc1 answer_label=No
given_smiles=COc1ccc(S(=O)(=O)Nc2ccc3[nH]cc(C[C@@H]4CCCN4C)c3c2)cc1 answer_label=No
given_smiles=COc1ccc(Cl)cc1S(=O)(=O)Nc1ccc2[nH]cc(C[C@@H]3CCCN3C)c2c1 answer_label=No
given_smiles=CN1CCC[C@@H]1Cc1c[nH]c2ccc(NS(=O)(=O)c3cccc(Cl)c3)cc12 answer_label=Yes

###

# study_system: 5-hydroxytryptamine receptor 6 (Homo sapiens, UniProt P50406)
# assay_remarks: Inhibition of 5-HT stimulated cAMP production in HeLa cells expressing human 5-hydroxytryptamine 6 receptor
pIC50: −log10 of the molar value.
parameter_measured: pIC50

given_smiles=CN1CCC[C@H]1Cc1c[nH]c2ccc(NS(=O)(=O)c3ccc(Br)cc3)cc12 reported_result=8.80
given_smiles=Cc1c(S(=O)(=O)Nc2ccc3[nH]cc(C[C@@H]4CCCN4C)c3c2)sc2ccc(Cl)cc12 reported_result=8.96
given_smiles=CN1CCC[C@H]1Cc1c[nH]c2ccc(NS(=O)(=O)c3ccc4ccccc4c3)cc12 reported_result=7.98
given_smiles=CN1CCC[C@H]1Cc1c[nH]c2ccc(NS(=O)(=O)c3ccc(OC(F)(F)F)cc3)cc12 reported_result=7.59
given_smiles=CN1CCC[C@H]1Cc1c[nH]c2ccc(NS(=O)(=O)c3cccc(C(F)(F)F)c3)cc12 reported_result=7.85

###

# study_system: D(2) dopamine receptor (Homo sapiens, UniProt P14416)
# Sequence (P14416 whole entry): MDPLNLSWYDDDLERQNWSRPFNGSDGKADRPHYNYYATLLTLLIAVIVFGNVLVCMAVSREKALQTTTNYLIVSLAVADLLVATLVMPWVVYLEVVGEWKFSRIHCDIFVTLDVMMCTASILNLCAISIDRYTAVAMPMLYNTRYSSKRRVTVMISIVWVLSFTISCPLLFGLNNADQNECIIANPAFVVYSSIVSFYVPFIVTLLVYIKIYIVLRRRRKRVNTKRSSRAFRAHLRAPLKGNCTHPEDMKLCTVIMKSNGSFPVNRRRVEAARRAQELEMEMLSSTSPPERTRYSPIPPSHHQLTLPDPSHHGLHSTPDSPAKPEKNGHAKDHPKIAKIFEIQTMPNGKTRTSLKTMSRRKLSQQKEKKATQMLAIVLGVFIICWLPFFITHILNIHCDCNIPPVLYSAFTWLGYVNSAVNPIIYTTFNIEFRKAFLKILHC
# assay_remarks: Inhibition of [3H]spiperone binding to human dopamine receptor D2 expressed in CHO-K1 cells
parameter_measured: Ki

given_smiles=O=S(=O)(Nc1ccc2[nH]cc(C[C@H]3CCCN3)c2c1)c1ccccc1Cl parameter_measured=Ki reported_result="> 5000 nM"
given_smiles=CN1CCC[C@@H]1Cc1c[nH]c2ccc(NS(=O)(=O)c3cccc(Cl)c3)cc12 parameter_measured=Ki reported_result="> 2000 nM"
given_smiles=CN1CCC[C@@H]1Cc1c[nH]c2ccc(NS(=O)(=O)c3ccccc3Cl)cc12 parameter_measured=Ki reported_result="> 2000 nM"
